PROTOCOL: Mouse pharmacokinetic (PK) study
Assay type: in vivo, CD-1 mice
RECORDED_CONDITIONS: mouse, plasma; CD-1 mice, 5 mg/kg IV; read-out: CL (converted)
PARAMETER: clearance (mL/min/kg)
Numbers only, in mL/min/kg.

clearance reading for `C/C(=C\C=C\[C@@H](C)c1ccccn1)[C@H]1OC(=O)C[C@H](O)CC[C@@](C)(O)[C@@H](OC(=O)N2CCN(C)CC2)/C=C/[C@@H]1C` : 26.3

* * *

PROTOCOL: Mouse pharmacokinetic (PK) study
Format: in vivo, CD-1 mice
RECORDED_CONDITIONS: mouse, plasma; CD-1 mice, 10 mg/kg PO (Table 7)
PARAMETER: AUC(0-inf) (ng·h/mL)
Answers are plain numbers, in ng·h/mL.

AUC(0-inf) reading for `C/C(=C\C=C\[C@@H](C)c1ccccn1)[C@H]1OC(=O)C[C@H](O)CC[C@@](C)(O)[C@@H](OC(=O)N2CCC(N3CCCCC3)CC2)/C=C/[C@@H]1C` : 7950

* * *

PROTOCOL: Mouse pharmacokinetic (PK) study
Type: in vivo, CD-1 mice
RECORDED_CONDITIONS: mouse, plasma; CD-1 mice, 13.307 mg/kg PO
PARAMETER: Cmax (ng/mL)
One number for each entry, in ng/mL.

Cmax reading for `C/C(=C\C=C\[C@@H](C)c1ccccn1)[C@H]1OC(=O)C[C@H](O)CC[C@@](C)(O)[C@@H](OC(=O)N2CCC(N3CCCCCC3)CC2)/C=C/[C@@H]1C` : 1570

* * *

PROTOCOL: Mouse pharmacokinetic (PK) study
Assay type: in vivo, CD-1 mice
RECORDED_CONDITIONS: mouse, plasma; CD-1 mice, 5 mg/kg IV (Table 7); read-out: CLtot (converted)
PARAMETER: clearance (mL/min/kg)
Numbers only, in mL/min/kg.

clearance reading for `C/C(=C\C=C\[C@@H](C)c1ccccn1)[C@H]1OC(=O)C[C@H](O)CC[C@@](C)(O)[C@@H](OC(=O)N2CCC(N3CCCCC3)CC2)/C=C/[C@@H]1C` : 12.6

* * *

PROTOCOL: Mouse pharmacokinetic (PK) study
Format: in vivo, CD-1 mice
RECORDED_CONDITIONS: mouse, plasma; CD-1 mice, 5 mg/kg IV; read-out: Vss
Method: Compound 2 was dosed at 5 mg/kg IV (intravenous) or 10 mg/kg PO (oral administration) to CD-1 mice. Following administration, blood samples were collected at pre-determined time points from five mice via serial bleeding of the tail vein. […] PK parameters were calculated using non-compartmental analysis in WinNonlin v6.3. Compound 1 was dosed at 5 mg/kg IV or 12 mg/kg PO to CD-1 mice. […] PK parameters were calculated using non-compartmental analysis in WinNonlin v6.3. […]
PARAMETER: Vd (L/kg)
One number for each entry, in L/kg.

Vd reading for `C/C(=C\C=C\[C@@H](C)c1ccccn1)[C@H]1OC(=O)C[C@H](O)CC[C@@](C)(O)[C@@H](OC(=O)N2CCN(C)CC2)/C=C/[C@@H]1C` : 2.37

* * *

PROTOCOL: Mouse pharmacokinetic (PK) study
Format: in vivo, CD-1 mice
RECORDED_CONDITIONS: mouse, plasma; CD-1 mice, 10 mg/kg PO
PARAMETER: Tmax
# answer = value followed by unit

Tmax reading for `C/C(=C\C=C\[C@@H](C)c1ccccn1)[C@H]1OC(=O)C[C@H](O)CC[C@@](C)(O)[C@@H](OC(=O)N2CCN(C)CC2)/C=C/[C@@H]1C` : 1 h
